# Tested on: Plasmodium falciparum NF54 gametocytes
# assay.protocol: viability index relative to DMSO control (fraction); higher = less gametocyte killing
# particulars: gametocyte stage: Stage V viability index; 12.5 µM; incubation time: 72 h
Item-by-item account of viability index
Please reply with the value in numeric form only.

Worked cases, answers included:
# molecule, viability index
measured = [
    ("Oc1ccc(-c2nc(-c3ccc4oc5ccc(-c6[nH]c(-c7ccc(O)cc7)nc6-c6ccccc6)cc5c4c3)c(-c3ccccc3)[nH]2)cc1", 0.013),
    ("O=C(Cc1ccccc1)NC(c1ccc(Cl)cc1)c1c(O)ccc2ccccc12 (stereo unspecified)", 0.857),
    ("COc1ccc(C(=O)C(CCC(CNC(C)(C)C)C(=O)c2ccc(OC)cc2)CNC(C)(C)C)cc1 (stereo unspecified)", 0.117),
    ("Oc1ccc2ccccc2c1CNc1nc2ccccc2[nH]1", 0.273),
    ("COc1ccccc1N1C(=N)SC(=Cc2ccc(OCc3ccccc3F)cc2)C1=O", 0.403),
    ("COc1ccccc1CNC(=O)CCn1c(=O)[nH]c2ccsc2c1=O", 0.769),
    ("Cc1c(C)n(CC(O)CNC2CCCCC2C)c2ccccc12 (stereo unspecified)", 0.923),
    ("CCCCOC(=O)c1ccc(Nc2cc(C)nc3ccc(OC)cc23)cc1", 0.325),
]

GET /value?item= COc1ccc(C(=O)NC(c2ccccc2Cl)c2cc(Cl)c3cccnc3c2O)cc1 (stereo unspecified) &field=viability index returns 0.221

GET /value?item= CCC(O)c1ccc(Br)cc1NC(=O)c1cccc(Cl)c1 (stereo unspecified) &field=viability index returns 0.582

GET /value?item= COc1ccc2c(=O)cc(C(Cl)(Cl)Cl)oc2c1 &field=viability index returns 0.56

GET /value?item= COc1cc(OC)c(N(C)C(=O)c2cc3c(s2)-c2ccccc2S(=O)(=O)C3)cc1Cl &field=viability index returns 0.022

GET /value?item= CC(C)CCNCC(O)Cn1c2ccccc2c2ccccc21 (stereo unspecified) &field=viability index returns 0.0779

GET /value?item= Cc1cc(=O)oc2c1ccc1oc(C(=O)c3ccccc3)c(C)c12 &field=viability index returns 1.01

GET /value?item= CCOc1cccc(C(=O)Nc2ccc(-c3nc4ccccc4[nH]3)cc2)c1 &field=viability index returns 0.637

* * *

Item-by-item account of viability index
# System: Plasmodium falciparum NF54 gametocytes
# assay.protocol: viability index relative to DMSO control (fraction); higher = less gametocyte killing
# particulars: gametocyte stage: Stage III viability index; 12.5 µM; incubation time: 72 h
Please reply with the value in numeric form only.

Worked cases, answers included:
# molecule, measure, result
measured = [
    ("O=C(Nc1cccc(-c2nc3ccccc3[nH]2)c1)c1cccc(NC(=O)c2ccco2)c1", "viability index", 1.01),
    ("CCN(CC)CCNc1ccnc2cc3ccccc3cc12", "viability index", 0.106),
]

GET /value?item= Cc1ccc(Nc2nc(N)c3ccccc3n2)cc1Cl &field=viability index returns 0.695

GET /value?item= CCOC(=O)C1=C(c2ccccc2)N=c2sc(=Cc3cc(C)n(-c4ccc(F)cc4)c3C)c(=O)n2C1c1cccc(OC)c1OC (centres undefined) &field=viability index returns 0.996

GET /value?item= COc1ccc(C2NCCc3c2[nH]c2ccccc32)cc1CN1CCN(c2ccc(F)cc2)CC1 (centres undefined) &field=viability index returns 0.0204

GET /value?item= COc1ccccc1CNC(=O)C1c2ccccc2C(=O)N(CC(C)C)C1c1cccs1 (centres undefined) &field=viability index returns 1.01

GET /value?item= CCCc1c(C)nc2ccccc2c1O &field=viability index returns 0.844

GET /value?item= CCN(Cc1ccccc1)C1CCN(Cc2cc(Br)ccc2O)CC1 &field=viability index returns 0.573

GET /value?item= Cc1cc(Nc2ccc(OCc3ccccc3)cc2)nc2cc(O)ccc12 &field=viability index returns 0.468

Data credit: the supplement of paper PMC4723716
